Cited source for all entries: ChEMBL document CHEMBL1909046

Target: Type-2 angiotensin II receptor (Homo sapiens, UniProt P50052); further: in other assays of this panel Not Active means under 50% inhibition at 10 µM
Sequence (P50052 whole entry): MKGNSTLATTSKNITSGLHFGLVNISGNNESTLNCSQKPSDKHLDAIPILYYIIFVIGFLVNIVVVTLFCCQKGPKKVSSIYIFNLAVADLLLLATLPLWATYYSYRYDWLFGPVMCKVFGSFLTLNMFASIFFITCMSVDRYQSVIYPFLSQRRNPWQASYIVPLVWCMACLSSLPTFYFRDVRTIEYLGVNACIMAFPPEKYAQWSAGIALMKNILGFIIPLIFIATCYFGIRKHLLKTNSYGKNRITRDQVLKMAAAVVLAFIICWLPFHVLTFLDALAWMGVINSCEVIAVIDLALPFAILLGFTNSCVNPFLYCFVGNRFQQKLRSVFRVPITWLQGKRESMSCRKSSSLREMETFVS
Assay type: cell-based
Conditions: cho-k1
MEASUREMENT_TYPE: IC50

Answered cases to consult:
CCC1(c2ccc(N)cc2)CCC(=O)NC1=O (stereo not drawn) [AMINOGLUTETHIMIDE]    Not Active
O=c1[nH]c(=O)n([C@H]2C[C@H](O)[C@@H](CO)O2)cc1I [IDOXURIDINE]    Not Active
CC(C)(C)NCC(O)c1cc(Cl)c(N)c(Cl)c1 (stereo not drawn) [CLENBUTEROL]    Not Active
Cc1c(C)c2c(c(C)c1O)CCC(C)(COc1ccc(CC3SC(=O)NC3=O)cc1)O2 (stereo not drawn) [TROGLITAZONE]    Not Active
CCCCN1CCCC[C@H]1C(=O)Nc1c(C)cccc1C [LEVOBUPIVACAINE]    Not Active
COc1cc2c3cc1Oc1cc(ccc1O)C[C@@H]1c4c(cc(OC)c(O)c4Oc4ccc(cc4)C[C@@H]3N(C)CC2)CC[N+]1(C)C.[Cl-]    Not Active

Tested system Type-2 angiotensin II receptor (Homo sapiens, UniProt P50052); IC50 recorded for CC[C@@H](CO)NC(=O)[C@@H]1C=C2c3cccc4[nH]cc(c34)C[C@H]2N(C)C1 [METHYLERGONOVINE] was Not Active

Tested system Type-2 angiotensin II receptor (Homo sapiens, UniProt P50052); IC50 recorded for CC1Cc2ccccc2N1NC(=O)c1ccc(Cl)c(S(N)(=O)=O)c1 (stereo not drawn) [INDAPAMIDE] was Not Active
